Sourced from the supplement of paper PMC10065799

biological target: FGFR1 (UniProt P11362); assay: phosphorylation enrichment, bacterial display (enrichment ratio); higher = better substrate or ligand; peptides without Tyr show the background
Sequence (P11362 whole entry, looked up): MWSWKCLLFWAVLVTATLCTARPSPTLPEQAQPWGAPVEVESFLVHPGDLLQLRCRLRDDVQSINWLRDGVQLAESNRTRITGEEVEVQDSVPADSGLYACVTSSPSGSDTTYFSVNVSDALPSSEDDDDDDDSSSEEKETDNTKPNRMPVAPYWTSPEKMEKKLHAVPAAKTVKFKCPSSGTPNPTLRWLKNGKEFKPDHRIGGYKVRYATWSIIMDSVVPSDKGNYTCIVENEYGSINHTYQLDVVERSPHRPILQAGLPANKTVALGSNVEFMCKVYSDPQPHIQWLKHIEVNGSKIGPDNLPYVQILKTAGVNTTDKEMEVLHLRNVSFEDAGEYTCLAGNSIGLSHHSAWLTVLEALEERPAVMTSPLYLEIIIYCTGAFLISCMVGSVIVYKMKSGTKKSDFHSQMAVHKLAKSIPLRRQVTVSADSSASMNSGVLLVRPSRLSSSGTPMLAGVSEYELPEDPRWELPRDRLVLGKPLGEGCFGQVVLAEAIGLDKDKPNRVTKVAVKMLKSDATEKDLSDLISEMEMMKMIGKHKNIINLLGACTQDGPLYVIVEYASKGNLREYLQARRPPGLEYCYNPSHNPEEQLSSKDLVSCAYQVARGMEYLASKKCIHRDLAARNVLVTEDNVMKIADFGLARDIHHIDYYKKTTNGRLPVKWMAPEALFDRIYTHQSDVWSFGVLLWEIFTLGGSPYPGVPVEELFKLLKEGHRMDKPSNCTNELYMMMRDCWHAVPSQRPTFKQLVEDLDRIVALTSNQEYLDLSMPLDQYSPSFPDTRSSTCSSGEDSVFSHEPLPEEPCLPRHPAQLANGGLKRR
# if value of phosphorylation enrichment reaches 0.5, tag t; if it stays below, tag f

Incoming: API: above_or_equal(metric=phosphorylation enrichment, cutoff=0.5) for item ILGRYYETSSI [PAX2_Y73_G76S]
Outgoing: t

Incoming: API: above_or_equal(metric=phosphorylation enrichment, cutoff=0.5) for item AFRRGYFDEEM [PLEC_Y2971_YF]
Outgoing: t

Incoming: API: above_or_equal(metric=phosphorylation enrichment, cutoff=0.5) for item LKGQVYILGRE [ASS1_Y359]
Outgoing: f

* * *

tested on: Fer (mouse); assay: phosphorylation enrichment, bacterial display (enrichment ratio); higher = better substrate or ligand; peptides without Tyr show the background
readout.type: phosphorylation enrichment
Returns: the value as a bare number; no unit string appended.

Example entries begin here.
Incoming: Look up phosphorylation enrichment: HIAKVYRRDNP [HARS1_Y156]
Outgoing: 0.507

Incoming: Look up phosphorylation enrichment: QFQEKYKQMEQ [HCN4_Y531_V534M_YF]
Outgoing: 0.502

Incoming: Look up phosphorylation enrichment: RENGPYYTSYP [GDAP2_Y487]
Outgoing: 0.618

Incoming: Look up phosphorylation enrichment: PLLEYYWDIFT [CDAN1_Y713_R714W]
Outgoing: 0.906

***
Incoming: Look up phosphorylation enrichment: RQAQAYRGQRV [TSHR_Y706]
Outgoing: 0.909

Incoming: Look up phosphorylation enrichment: LENSTYQFIHV [CRB1_Y760_R764H_YF]
Outgoing: 24.8

Incoming: Look up phosphorylation enrichment: REVPVYTYSEP [FAM120B_Y368_D370Y]
Outgoing: 12.9

* * *

target: c-Src SH2; experiment: SH2 binding enrichment of the phosphorylated peptide, bacterial display (enrichment ratio); higher = better substrate or ligand; peptides without Tyr show the background
This listing pairs sequences with measured SH2 binding enrichment.
Returns: the value as a bare number; no unit string appended.

Example entries begin here.
Incoming: Look up SH2 binding enrichment: DGNTRYSTFSE [TKTL1_Y318_D315N]
Outgoing: 1.02

Incoming: Look up SH2 binding enrichment: RLDPVYFVAPA [LAMC2_Y250]
Outgoing: 0.594

***
Incoming: Look up SH2 binding enrichment: LDFPEYNGVDR [CASQ1_Y43_D44N]
Outgoing: 0.975

* * *

test system: c-Abl (mouse); experiment: phosphorylation enrichment, bacterial display (enrichment ratio); higher = better substrate or ligand; peptides without Tyr show the background
Classify by phosphorylation enrichment. Ranges: class 1: < 0.6; class 2: ≥ 0.6 and < 0.9; class 3: ≥ 0.9

Incoming: Categorize the following entry: LTEHGYSFTTT [ACTB_Y198_R196H]
Outgoing: class 3

Incoming: Categorize the following entry: ERKQTYGSCRK [LACTB_Y473]
Outgoing: class 1

Incoming: Categorize the following entry: KDLPNYNWNSF [KISS1_Y112]
Outgoing: class 2

Incoming: Categorize the following entry: VEKEKYVSFIS [JMJD1C_Y596_M591V_YF]
Outgoing: class 1

Incoming: Categorize the following entry: IFLGAYDRFLP [SLC22A5_Y486_V481I_YF]
Outgoing: class 3

Incoming: Categorize the following entry: HLWRIYFDITD [MMP27_Y307_YF]
Outgoing: class 3

Incoming: Categorize the following entry: TSEASYYKSLN [NGEF_Y288]
Outgoing: class 2

Incoming: Categorize the following entry: SRIWVYNHFRW [BRCA2_Y2621_YF]
Outgoing: class 2

Incoming: Categorize the following entry: LLREWYLQDPY [SIX3_Y225]
Outgoing: class 3

Incoming: Categorize the following entry: SVKVYYKKCWF [EPHA7_Y202_S207F]
Outgoing: class 2

***
Incoming: Categorize the following entry: LIGTPYWMAPE [PAK5_Y608_V604I]
Outgoing: class 3

* * *

biological target: Hck (UniProt P08631); assay: phosphorylation enrichment, bacterial display (enrichment ratio); higher = better substrate or ligand; peptides without Tyr show the background
Sequence (P08631 whole entry, looked up): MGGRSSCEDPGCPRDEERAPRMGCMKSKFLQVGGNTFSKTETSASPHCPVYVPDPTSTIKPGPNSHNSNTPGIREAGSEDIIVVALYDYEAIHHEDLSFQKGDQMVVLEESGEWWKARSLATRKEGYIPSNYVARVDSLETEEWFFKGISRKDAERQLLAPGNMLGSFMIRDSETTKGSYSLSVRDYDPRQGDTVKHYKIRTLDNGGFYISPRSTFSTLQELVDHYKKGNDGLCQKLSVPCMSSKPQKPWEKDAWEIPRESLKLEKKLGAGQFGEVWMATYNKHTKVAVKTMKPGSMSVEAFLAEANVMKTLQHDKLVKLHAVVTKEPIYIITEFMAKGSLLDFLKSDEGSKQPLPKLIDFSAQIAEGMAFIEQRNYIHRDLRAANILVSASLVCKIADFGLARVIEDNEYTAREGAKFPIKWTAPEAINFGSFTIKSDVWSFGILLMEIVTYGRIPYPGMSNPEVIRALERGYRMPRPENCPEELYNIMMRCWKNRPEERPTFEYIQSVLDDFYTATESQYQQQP
# if value of phosphorylation enrichment reaches 0.5, tag 1; if it stays below, tag 0

Past entries and their recorded results:
Incoming: API: above_or_equal(metric=phosphorylation enrichment, cutoff=0.5) for item HPFHVYSQPGM [BAG3_Y114_P115S]
Outgoing: 1

Incoming: API: above_or_equal(metric=phosphorylation enrichment, cutoff=0.5) for item SKQGKYLNWDA [ATM_Y54]
Outgoing: 0

Incoming: API: above_or_equal(metric=phosphorylation enrichment, cutoff=0.5) for item GTSLIYWILFT [G6PC3_Y214_T216I]
Outgoing: 1

Incoming: API: above_or_equal(metric=phosphorylation enrichment, cutoff=0.5) for item FSAPNCCFRCG [PPP2CA_Y265_Y265C_YF]
Outgoing: 0

***
Incoming: API: above_or_equal(metric=phosphorylation enrichment, cutoff=0.5) for item SRIWVYNHFRW [BRCA2_Y2621_YF]
Outgoing: 0

Incoming: API: above_or_equal(metric=phosphorylation enrichment, cutoff=0.5) for item IFLGAYDRFLP [SLC22A5_Y486_V481I_YF]
Outgoing: 1

Incoming: API: above_or_equal(metric=phosphorylation enrichment, cutoff=0.5) for item PINLYYLMDLS [ITGB2_Y131_D128N]
Outgoing: 1

Incoming: API: above_or_equal(metric=phosphorylation enrichment, cutoff=0.5) for item CEHRGCLYLAI [TEK_Y897_Y897C]
Outgoing: 0

Incoming: API: above_or_equal(metric=phosphorylation enrichment, cutoff=0.5) for item LRTAVHHEILI [CREBBP_Y1450_Y1450H]
Outgoing: 1

Incoming: API: above_or_equal(metric=phosphorylation enrichment, cutoff=0.5) for item ADPQEYIPLPA [JAKtide_2014]
Outgoing: 1

Incoming: API: above_or_equal(metric=phosphorylation enrichment, cutoff=0.5) for item GRQGIYKENER [GPR143_Y231_T232K]
Outgoing: 0

Incoming: API: above_or_equal(metric=phosphorylation enrichment, cutoff=0.5) for item SVVVPYQPPEV [TP53_Y220_E221Q]
Outgoing: 0

Incoming: API: above_or_equal(metric=phosphorylation enrichment, cutoff=0.5) for item RKKLFYKADGE [SERPINC1_Y272_E269K]
Outgoing: 1

Incoming: API: above_or_equal(metric=phosphorylation enrichment, cutoff=0.5) for item SRVTQYERNFE [SNX1_Y463_D466N]
Outgoing: 0

Incoming: API: above_or_equal(metric=phosphorylation enrichment, cutoff=0.5) for item LLKNMYLMLDN [STAT1_Y203_K201N]
Outgoing: 1

Incoming: API: above_or_equal(metric=phosphorylation enrichment, cutoff=0.5) for item REVPVYTYSEP [FAM120B_Y368_D370Y]
Outgoing: 1

Incoming: API: above_or_equal(metric=phosphorylation enrichment, cutoff=0.5) for item AQPHTYEEPGR [EPHA8_Y616_E612Q]
Outgoing: 0

Incoming: API: above_or_equal(metric=phosphorylation enrichment, cutoff=0.5) for item RIVEIYTRRLQ [GCH1_Y175_S176T]
Outgoing: 1

Incoming: API: above_or_equal(metric=phosphorylation enrichment, cutoff=0.5) for item IENKLYGMSDP [RET_Y1062]
Outgoing: 1

Incoming: API: above_or_equal(metric=phosphorylation enrichment, cutoff=0.5) for item EAAFVYVISSA [WNT4_Y113_A114V]
Outgoing: 1

Incoming: API: above_or_equal(metric=phosphorylation enrichment, cutoff=0.5) for item KLIETCFSKNY [PLP1_Y50_Y50C]
Outgoing: 1

* * *

biological target: c-Src SH2; test: SH2 binding enrichment of the phosphorylated peptide, bacterial display (enrichment ratio); higher = better substrate or ligand; peptides without Tyr show the background;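 also: peptide library displayed on the E. coli surface as eCPX fusions, selected cells deep-sequenced, score is each peptide's frequency after selection divided by its frequency in the input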
readout.type: SH2 binding enrichment
Returns: the value as a bare number; no unit string appended.

Incoming: Look up SH2 binding enrichment: LTERSYSFVTT [ACTA1_Y200_G199S]
Outgoing: 5.24

Incoming: Look up SH2 binding enrichment: QQTYTYDSGIH [JUP_Y22]
Outgoing: 0.744

Incoming: Look up SH2 binding enrichment: NQLNDYIFSFD [RARS1_Y516_R512Q]
Outgoing: 0.553

Incoming: Look up SH2 binding enrichment: KELALYDENWF [RPS19_Y48_P47L]
Outgoing: 0.456

Incoming: Look up SH2 binding enrichment: VGEGPYLISDL [ABCC12_Y7]
Outgoing: 0.414

***
Incoming: Look up SH2 binding enrichment: NTEGGYCCICA [CRELD1_Y328_R329C]
Outgoing: 0.632

Incoming: Look up SH2 binding enrichment: GTSLIYWILFT [G6PC3_Y214_T216I]
Outgoing: 0.593

Incoming: Look up SH2 binding enrichment: RSHLPYDVTPE [IQGAP3_Y1098]
Outgoing: 0.588

Incoming: Look up SH2 binding enrichment: EEVKAYLDFGE [CHAC2_Y78_R82G]
Outgoing: 0.383

* * *

target: MERTK (UniProt Q12866); experiment: phosphorylation enrichment, bacterial display (enrichment ratio); higher = better substrate or ligand; peptides without Tyr show the background
Sequence (Q12866 whole entry, looked up): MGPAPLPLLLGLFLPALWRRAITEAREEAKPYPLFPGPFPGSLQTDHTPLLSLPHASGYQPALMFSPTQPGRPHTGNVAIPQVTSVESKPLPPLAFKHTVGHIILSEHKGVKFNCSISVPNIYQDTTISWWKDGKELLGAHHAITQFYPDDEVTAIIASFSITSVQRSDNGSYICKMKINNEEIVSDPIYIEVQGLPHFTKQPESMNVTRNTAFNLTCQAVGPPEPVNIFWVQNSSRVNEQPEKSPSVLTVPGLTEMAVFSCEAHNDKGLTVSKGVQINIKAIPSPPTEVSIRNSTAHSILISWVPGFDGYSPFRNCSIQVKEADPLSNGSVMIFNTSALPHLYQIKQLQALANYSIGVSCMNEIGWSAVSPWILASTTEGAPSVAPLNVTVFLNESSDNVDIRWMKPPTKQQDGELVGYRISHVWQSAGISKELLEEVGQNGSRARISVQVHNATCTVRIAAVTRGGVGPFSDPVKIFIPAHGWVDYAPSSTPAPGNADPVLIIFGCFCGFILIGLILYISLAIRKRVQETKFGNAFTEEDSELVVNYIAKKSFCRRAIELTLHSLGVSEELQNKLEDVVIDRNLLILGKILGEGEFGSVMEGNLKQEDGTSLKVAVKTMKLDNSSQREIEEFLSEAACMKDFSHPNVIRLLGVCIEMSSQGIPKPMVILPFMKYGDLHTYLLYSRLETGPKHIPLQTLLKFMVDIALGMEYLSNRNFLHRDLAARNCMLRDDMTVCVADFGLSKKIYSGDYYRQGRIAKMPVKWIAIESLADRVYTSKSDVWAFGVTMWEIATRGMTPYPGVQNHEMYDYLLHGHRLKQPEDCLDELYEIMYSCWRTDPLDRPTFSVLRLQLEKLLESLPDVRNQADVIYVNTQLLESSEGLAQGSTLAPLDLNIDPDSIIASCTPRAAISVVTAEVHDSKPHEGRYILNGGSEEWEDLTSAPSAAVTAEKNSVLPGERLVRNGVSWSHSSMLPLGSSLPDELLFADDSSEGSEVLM
# if value of phosphorylation enrichment reaches 0.4, tag Condition met; if it stays below, tag Condition not met

Past entries and their recorded results:
Incoming: API: above_or_equal(metric=phosphorylation enrichment, cutoff=0.4) for item DLDFTYIFPNI [PTEN_Y27_L25F_YF]
Outgoing: Condition met

Incoming: API: above_or_equal(metric=phosphorylation enrichment, cutoff=0.4) for item PVQAAYQQVVA [HBB_Y131_K133Q]
Outgoing: Condition met

***
Incoming: API: above_or_equal(metric=phosphorylation enrichment, cutoff=0.4) for item ERKQTYGSCRK [LACTB_Y473]
Outgoing: Condition not met

Incoming: API: above_or_equal(metric=phosphorylation enrichment, cutoff=0.4) for item TTICKYITPME [GUCY2C_Y839_S840I]
Outgoing: Condition met

Incoming: API: above_or_equal(metric=phosphorylation enrichment, cutoff=0.4) for item RENGPYYTSYP [GDAP2_Y487]
Outgoing: Condition met

Incoming: API: above_or_equal(metric=phosphorylation enrichment, cutoff=0.4) for item SSSAIYDNPNL [DCP1B_Y191]
Outgoing: Condition met
